- assay_system: Neuronal acetylcholine receptor; alpha4/beta2 (Rattus norvegicus, UniProt P09483+P12390)
- Sequence (P09483 whole entry): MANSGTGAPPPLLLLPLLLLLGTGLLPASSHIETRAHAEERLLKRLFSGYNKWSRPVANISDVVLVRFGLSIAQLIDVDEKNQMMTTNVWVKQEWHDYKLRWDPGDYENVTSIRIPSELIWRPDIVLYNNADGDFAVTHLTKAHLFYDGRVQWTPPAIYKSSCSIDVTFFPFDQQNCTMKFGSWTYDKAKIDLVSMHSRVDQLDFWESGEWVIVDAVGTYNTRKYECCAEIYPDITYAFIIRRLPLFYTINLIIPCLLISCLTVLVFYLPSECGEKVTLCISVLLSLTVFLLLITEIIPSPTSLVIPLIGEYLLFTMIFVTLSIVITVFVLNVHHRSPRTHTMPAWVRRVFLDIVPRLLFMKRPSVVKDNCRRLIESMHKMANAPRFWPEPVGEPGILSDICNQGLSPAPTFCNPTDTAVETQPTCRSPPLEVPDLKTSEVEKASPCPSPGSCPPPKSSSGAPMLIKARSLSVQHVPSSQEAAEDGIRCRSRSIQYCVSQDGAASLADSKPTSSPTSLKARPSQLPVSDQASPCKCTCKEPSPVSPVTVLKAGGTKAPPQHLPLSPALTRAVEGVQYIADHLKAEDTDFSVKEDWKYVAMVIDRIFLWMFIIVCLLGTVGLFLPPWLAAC
- Sequence (P12390 whole entry): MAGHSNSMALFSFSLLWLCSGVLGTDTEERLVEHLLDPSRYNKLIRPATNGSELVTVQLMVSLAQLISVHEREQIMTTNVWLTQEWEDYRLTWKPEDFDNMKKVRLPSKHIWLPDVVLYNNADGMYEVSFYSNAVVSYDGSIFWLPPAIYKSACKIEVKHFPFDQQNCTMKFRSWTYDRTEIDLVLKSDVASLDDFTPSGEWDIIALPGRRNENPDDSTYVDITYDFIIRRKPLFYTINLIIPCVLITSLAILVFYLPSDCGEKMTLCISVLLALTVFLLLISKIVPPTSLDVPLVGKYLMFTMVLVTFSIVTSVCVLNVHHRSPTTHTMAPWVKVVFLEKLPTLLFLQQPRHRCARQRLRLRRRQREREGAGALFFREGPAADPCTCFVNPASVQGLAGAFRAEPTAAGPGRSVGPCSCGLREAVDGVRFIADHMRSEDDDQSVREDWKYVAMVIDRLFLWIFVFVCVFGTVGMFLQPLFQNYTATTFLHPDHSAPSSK
- protocol_text: Displacement of [3H]epibatidine from alpha4beta2 nAChR in rat cortical membranes by beta counting relative to acetylcholine
measure_name: Ki (µM)
Provide only the numeric value, understood in µM.

These solved cases illustrate the format of a correct answer.
BrC1=NOC2(C1)CN1CCC2C1 (racemic)    5
BrC1=NOC2(CCCNC2)C1 (racemic)    58
C[N+]12CCC(CC1)C1(CC(Br)=NO1)C2 (racemic)    32.5
c1ccc(C2=NOC3(C2)CN2CCC3C2)cc1 (racemic)    53
COC1=NOC2(C1)C[N+]1(C)CCC2CC1 (racemic)    175
COC1=NOC2(C1)CN1CCC2C1 (racemic)    16
c1ccc(C2=NOC3(C2)CN2CCC3CC2)cc1 (racemic)    22
COC1=NOC2(CCC[N+](C)(C)C2)C1 (racemic)    94

For C[N+]12CCC(C1)C1(CC(c3ccccc3)=NO1)C2 (racemic) on Neuronal acetylcholine receptor; alpha4/beta2 (Rattus norvegicus, UniProt P09483+P12390), measured Ki was 38

For COC1=NOC2(C1)CN1CCC2CC1 (racemic) on Neuronal acetylcholine receptor; alpha4/beta2 (Rattus norvegicus, UniProt P09483+P12390), measured Ki was 7.9

For C[N+]12CCC(C1)C1(CC(Br)=NO1)C2 (racemic) on Neuronal acetylcholine receptor; alpha4/beta2 (Rattus norvegicus, UniProt P09483+P12390), measured Ki was 22

For C[N+]1(C)CCCC2(CC(Br)=NO2)C1 (racemic) on Neuronal acetylcholine receptor; alpha4/beta2 (Rattus norvegicus, UniProt P09483+P12390), measured Ki was 50

For BrC1=NOC2(C1)CN1CCC2CC1 (racemic) on Neuronal acetylcholine receptor; alpha4/beta2 (Rattus norvegicus, UniProt P09483+P12390), measured Ki was 0.64

For COC1=NOC2(C1)C[N+]1(C)CCC2C1 (racemic) on Neuronal acetylcholine receptor; alpha4/beta2 (Rattus norvegicus, UniProt P09483+P12390), measured Ki was 20

For CN1CCCC2(CC(Br)=NO2)C1 (racemic) on Neuronal acetylcholine receptor; alpha4/beta2 (Rattus norvegicus, UniProt P09483+P12390), measured Ki was 44

###

- assay_system: Neuronal acetylcholine receptor subunit alpha-7 (Homo sapiens, UniProt P36544)
- Sequence (P36544 whole entry): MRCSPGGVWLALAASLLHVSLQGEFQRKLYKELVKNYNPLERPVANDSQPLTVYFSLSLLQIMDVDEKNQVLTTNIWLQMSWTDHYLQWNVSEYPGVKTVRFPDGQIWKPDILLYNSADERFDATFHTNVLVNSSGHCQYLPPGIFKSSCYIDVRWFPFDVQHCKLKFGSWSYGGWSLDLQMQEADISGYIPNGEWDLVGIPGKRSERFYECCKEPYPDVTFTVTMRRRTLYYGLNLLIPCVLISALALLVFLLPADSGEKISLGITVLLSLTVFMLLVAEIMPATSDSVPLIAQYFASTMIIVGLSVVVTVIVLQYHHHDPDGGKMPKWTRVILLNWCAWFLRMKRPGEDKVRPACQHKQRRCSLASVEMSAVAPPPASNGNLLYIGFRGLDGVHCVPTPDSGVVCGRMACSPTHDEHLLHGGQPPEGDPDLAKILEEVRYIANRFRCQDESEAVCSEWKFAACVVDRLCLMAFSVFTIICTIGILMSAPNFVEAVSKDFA
- protocol_text: Agonist activity at human alpha7 nAChR expressed in rat GH4C1 cells assessed as maximal electric current amplitude at 1 mM by whole-cell patch clamp electrophysiology assay relative to acetylcholine
measure_name: pEC50
Kindly note that pEC50 refers to -log10 of the concentration in mol/L and answer with the value alone.

So, BrC1=NOC2(C1)CN1CCC2C1 (racemic) ? Its pEC50 was 4.08

###

- assay_system: Neuronal acetylcholine receptor; alpha3/beta4 (Homo sapiens, UniProt P30926+P32297)
- Sequence (P30926 whole entry): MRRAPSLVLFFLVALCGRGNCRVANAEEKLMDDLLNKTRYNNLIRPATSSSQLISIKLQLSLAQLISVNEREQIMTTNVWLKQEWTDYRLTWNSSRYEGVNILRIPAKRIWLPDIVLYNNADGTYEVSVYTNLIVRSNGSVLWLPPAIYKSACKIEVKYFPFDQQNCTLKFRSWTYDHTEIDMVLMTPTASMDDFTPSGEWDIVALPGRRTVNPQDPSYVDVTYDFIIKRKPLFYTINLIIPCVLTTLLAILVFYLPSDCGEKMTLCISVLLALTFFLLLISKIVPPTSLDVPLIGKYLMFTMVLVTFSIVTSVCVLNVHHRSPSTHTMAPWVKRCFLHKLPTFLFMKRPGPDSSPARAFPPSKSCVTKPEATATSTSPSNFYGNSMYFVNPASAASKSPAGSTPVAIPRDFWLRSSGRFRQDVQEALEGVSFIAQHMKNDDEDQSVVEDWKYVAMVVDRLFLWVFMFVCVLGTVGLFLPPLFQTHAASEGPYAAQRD
- Sequence (P32297 whole entry): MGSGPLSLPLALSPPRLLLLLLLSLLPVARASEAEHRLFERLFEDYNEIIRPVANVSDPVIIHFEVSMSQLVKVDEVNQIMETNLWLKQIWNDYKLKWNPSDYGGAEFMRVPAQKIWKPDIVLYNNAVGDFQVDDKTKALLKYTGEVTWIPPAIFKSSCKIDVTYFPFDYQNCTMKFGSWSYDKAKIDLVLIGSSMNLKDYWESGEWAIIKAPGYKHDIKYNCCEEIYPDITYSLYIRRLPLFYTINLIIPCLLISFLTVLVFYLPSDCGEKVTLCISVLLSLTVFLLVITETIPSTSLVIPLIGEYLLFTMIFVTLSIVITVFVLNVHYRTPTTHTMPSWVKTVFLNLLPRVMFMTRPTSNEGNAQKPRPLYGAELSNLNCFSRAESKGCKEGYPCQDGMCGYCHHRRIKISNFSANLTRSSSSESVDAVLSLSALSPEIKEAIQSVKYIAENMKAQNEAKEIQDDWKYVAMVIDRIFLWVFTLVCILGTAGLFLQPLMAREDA
- protocol_text: Displacement of [3H]epibatidine from alpha3beta4 nAChR expressed in human HEK293 cells by beta liquid scintillation counting
Entries and their measured pKi follow.
Kindly note that pKi refers to -log10 of the concentration in mol/L and answer with the value alone.

COC1=NOC2(CCCNC2)C1 (racemic)    4.12

For C[N+]1(C)CCCC2(CC(c3ccccc3)=NO2)C1 (racemic) on Neuronal acetylcholine receptor; alpha3/beta4 (Homo sapiens, UniProt P30926+P32297), measured pKi was 5.18

For c1ccc(C2=NOC3(C2)CN2CCC3C2)cc1 (racemic) on Neuronal acetylcholine receptor; alpha3/beta4 (Homo sapiens, UniProt P30926+P32297), measured pKi was 4.80

For BrC1=NOC2(C1)CN1CCC2C1 (racemic) on Neuronal acetylcholine receptor; alpha3/beta4 (Homo sapiens, UniProt P30926+P32297), measured pKi was 4.89

For COC1=NOC2(C1)CN1CCC2C1 (racemic) on Neuronal acetylcholine receptor; alpha3/beta4 (Homo sapiens, UniProt P30926+P32297), measured pKi was 4.34

For COC1=NOC2(CCCN(C)C2)C1 (racemic) on Neuronal acetylcholine receptor; alpha3/beta4 (Homo sapiens, UniProt P30926+P32297), measured pKi was 4.04

For c1ccc(C2=NOC3(CCCNC3)C2)cc1 (racemic) on Neuronal acetylcholine receptor; alpha3/beta4 (Homo sapiens, UniProt P30926+P32297), measured pKi was 4.37

###

- assay_system: Neuronal acetylcholine receptor subunit alpha-7 (Rattus norvegicus, UniProt Q05941)
- Sequence (Q05941 whole entry): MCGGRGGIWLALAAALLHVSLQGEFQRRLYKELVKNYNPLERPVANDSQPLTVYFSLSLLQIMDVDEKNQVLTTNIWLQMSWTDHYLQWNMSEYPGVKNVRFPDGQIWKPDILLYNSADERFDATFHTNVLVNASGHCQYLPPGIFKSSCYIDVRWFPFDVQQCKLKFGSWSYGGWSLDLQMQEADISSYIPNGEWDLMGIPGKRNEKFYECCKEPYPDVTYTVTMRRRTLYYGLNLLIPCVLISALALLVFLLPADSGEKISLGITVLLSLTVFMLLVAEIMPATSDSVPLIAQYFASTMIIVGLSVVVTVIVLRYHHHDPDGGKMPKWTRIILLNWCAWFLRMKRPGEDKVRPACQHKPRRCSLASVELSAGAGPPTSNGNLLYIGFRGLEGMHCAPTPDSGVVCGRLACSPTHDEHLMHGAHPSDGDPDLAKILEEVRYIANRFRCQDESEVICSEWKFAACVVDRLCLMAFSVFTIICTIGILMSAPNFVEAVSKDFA
- protocol_text: Displacement of [125I]-alpha-bungarotoxin from alpha7 nAChR in rat cortical membranes by gamma counting
Entries and their measured pKi follow.
Kindly note that pKi refers to -log10 of the concentration in mol/L and answer with the value alone.

These solved cases illustrate the format of a correct answer.
C[N+]12CCC(C1)C1(CC(Br)=NO1)C2 (racemic)    5.21
C[N+]12CCC(C1)C1(CC(c3ccccc3)=NO1)C2 (racemic)    5.29
COC1=NOC2(CCCNC2)C1 (racemic)    5.43
C[N+]12CCC(CC1)C1(CC(Br)=NO1)C2 (racemic)    6.96
COC1=NOC2(CCC[N+](C)(C)C2)C1 (racemic)    4.89
CN1CCCC2(CC(Br)=NO2)C1 (racemic)    5.18
BrC1=NOC2(CCCNC2)C1 (racemic)    5.37
c1ccc(C2=NOC3(C2)CN2CCC3CC2)cc1 (racemic)    7.60
c1ccc(C2=NOC3(C2)CN2CCC3C2)cc1 (racemic)    5.44
COC1=NOC2(CCCN(C)C2)C1 (racemic)    5.26

So, c1ccc(C2=NOC3(CCCNC3)C2)cc1 (racemic) ? Its pKi was 5.35

So, COC1=NOC2(C1)C[N+]1(C)CCC2C1 (racemic) ? Its pKi was 5.54

So, C[N+]1(C)CCCC2(CC(Br)=NO2)C1 (racemic) ? Its pKi was 5.43

So, COC1=NOC2(C1)CN1CCC2C1 (racemic) ? Its pKi was 6.38

So, CN1CCCC2(CC(c3ccccc3)=NO2)C1 (racemic) ? Its pKi was 4.52

So, BrC1=NOC2(C1)CN1CCC2CC1 (racemic) ? Its pKi was 7.87

So, C[N+]1(C)CCCC2(CC(c3ccccc3)=NO2)C1 (racemic) ? Its pKi was 6.15

So, COC1=NOC2(C1)CN1CCC2CC1 (racemic) ? Its pKi was 7.85

So, COC1=NOC2(C1)C[N+]1(C)CCC2CC1 (racemic) ? Its pKi was 7.04

So, BrC1=NOC2(C1)CN1CCC2C1 (racemic) ? Its pKi was 6.64
